target: UniProtKB P56817
Sequence (P56817 whole entry): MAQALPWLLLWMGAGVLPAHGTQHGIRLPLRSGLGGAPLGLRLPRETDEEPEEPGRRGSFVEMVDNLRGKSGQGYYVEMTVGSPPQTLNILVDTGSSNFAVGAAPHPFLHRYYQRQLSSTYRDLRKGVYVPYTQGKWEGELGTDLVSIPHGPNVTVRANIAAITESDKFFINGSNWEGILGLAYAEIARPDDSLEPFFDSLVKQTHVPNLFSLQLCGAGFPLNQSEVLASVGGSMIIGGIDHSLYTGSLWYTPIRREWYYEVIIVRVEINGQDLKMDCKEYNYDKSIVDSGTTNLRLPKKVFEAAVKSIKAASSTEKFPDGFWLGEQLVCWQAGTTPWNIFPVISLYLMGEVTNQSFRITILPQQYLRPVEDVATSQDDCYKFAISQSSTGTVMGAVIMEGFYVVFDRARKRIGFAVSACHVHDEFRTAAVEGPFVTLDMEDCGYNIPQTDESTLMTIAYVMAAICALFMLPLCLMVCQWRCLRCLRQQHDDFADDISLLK
PARAMETER: IC50 (µM)
One number for each entry, in µM.

>>> reading("CC(C)CNC(=O)[C@H](C)NC[C@H](Cc1ccccc1)NC(=O)c1cc(/C=C\\[C@H]2C[C@@H]2C)cc(N(C)S(C)(=O)=O)c1")
0.02

*Q* Endpoint output: IC50 of C[C@H](NC[C@H](Cc1ccccc1)NC(=O)c1cc(C(=O)N[C@H](C)c2ccc(F)cc2)cc(N(C)S(C)(=O)=O)c1)C(=O)N1CCCC1C(=O)O (some centres not stated) . Value?
*A* 17.2
